Values were extracted from patent US6281342A.

# Tested on: Candida albicans A9540
# protocol-notes: animal or person
# Type: in vivo, male ICR mice infected with Candida albicans A9540
# condition-notes: Candida albicans, A9540, 480 h; C. albicans, mice, 6.3 mg/kg iv, 20th day post-infection; read-out: S/T (No. of survivors/tested) (converted)
Catalogue of responders at 6.3 mg/kg readings, one per entry.
Number in %, nothing else.

Below, each entry is followed by its recorded responders at 6.3 mg/kg result.
>  <compound>
CN[C@@H]1[C@H](O[C@@H]2OC[C@@H](O)[C@H](O)[C@H]2O)[C@@H](O)[C@H](O[C@H]2c3cc(C)c(C(=O)N[C@H](CO)C(=O)O)c(O)c3-c3c(cc4c(c3O)C(=O)c3cc(OC)cc(O)c3C4=O)[C@@H]2O)O[C@@H]1C [Pradimicin FA-1, reference compound]

>  <responders at 6.3 mg/kg / %>
0

$$$$
>  <compound>
COc1cc(O)c2c(c1)C(=O)c1c(cc3c(c1O)-c1c(cc(C)c(C(=O)N[C@H](C)C(=O)O)c1O)[C@H](O[C@@H]1O[C@H](C)[C@H](N)[C@H](O[C@@H]4OC[C@@H](O)[C@H](O)[C@H]4O)[C@H]1O)[C@H]3O)C2=O [Pradimicin C]

>  <responders at 6.3 mg/kg / %>
40

$$$$
>  <compound>
CN[C@@H]1[C@H](O[C@@H]2OC[C@@H](O)[C@H](O)[C@H]2O)[C@@H](O)[C@H](O[C@H]2c3cc(C)c(C(=O)N[C@H](C)C(=O)O)c(O)c3-c3c(cc4c(c3O)C(=O)c3cc(OC)cc(O)c3C4=O)[C@@H]2O)O[C@@H]1C [Pradimicin A, reference compound]

>  <responders at 6.3 mg/kg / %>
0

$$$$

Query: What responders at 6.3 mg/kg appears in the records for this compound with Candida albicans A9540? COc1cc(O)c2c(c1)C(=O)c1c(cc3c(c1O)-c1c(cc(C)c(C(=O)N[C@H](C)C(=O)O)c1O)[C@H](O[C@@H]1O[C@H](C)[C@H](NC#N)[C@H](O[C@@H]4OC[C@@H](O)[C@H](O)[C@H]4O)[C@H]1O)[C@H]3O)C2=O [KHM-2, 4'-N-Cyanopradimicin C]
Result: 20

Query: Follow-up entry: COc1cc(O)c2c(c1)C(=O)c1c(cc3c(c1O)-c1c(cc(C)c(C(=O)N[C@H](CO)C(=O)O)c1O)[C@H](O[C@@H]1O[C@H](C)[C@H](N)[C@H](O[C@@H]4OC[C@@H](O)[C@H](O)[C@H]4O)[C@H]1O)[C@H]3O)C2=O [Pradimicin FA-2, reference compound]
Result: 40

Query: Follow-up entry: COc1cc(O)c2c(c1)C(=O)c1c(cc3c(c1O)-c1c(cc(C)c(C(=O)N[C@H](CO)C(=O)O)c1O)[C@H](O[C@@H]1O[C@H](C)[C@H](NC#N)[C@H](O[C@@H]4OC[C@@H](O)[C@H](O)[C@H]4O)[C@H]1O)[C@H]3O)C2=O [KHM-4, 4'-N-Cyanopradimicin FA2]
Result: 0

* * *

Catalogue of MIC readings, one per entry.
# System: Trichophyton mentagrophytes #4329
# protocol-notes: MIC, two-fold agar dilution, T. mentagrophytes #4329
# Type: cell-based
# condition-notes: Trichophyton mentagrophytes #4329; YMA pH 7.0, 28° C., 60 hours; read-out: MIC
Number in µg/mL, nothing else.

Below, each entry is followed by its recorded MIC result.
>  <molecule>
COc1cc(O)c2c(c1)C(=O)c1c(cc3c(c1O)-c1c(cc(C)c(C(=O)N[C@H](C)C(=O)O)c1O)[C@H](O[C@@H]1O[C@H](C)[C@H](N(C)C#N)[C@H](O[C@@H]4OC[C@@H](O)[C@H](O)[C@H]4O)[C@H]1O)[C@H]3O)C2=O [KHM-1, 4'-N-Cyanogradimicin A]

>  <study-system>
Trichophyton mentagrophytes #4329

>  <value-measured>
25

$$$$
>  <molecule>
COc1cc(O)c2c(c1)C(=O)c1c(cc3c(c1O)-c1c(cc(C)c(C(=O)N[C@H](C)C(=O)O)c1O)[C@H](O[C@@H]1O[C@H](C)[C@H](NC=N)[C@H](O[C@@H]4OC[C@@H](O)[C@H](O)[C@H]4O)[C@H]1O)[C@H]3O)C2=O [KHM-9, 4'-Amidinopradimicin C]

>  <study-system>
Trichophyton mentagrophytes #4329

>  <value-measured>
3.1

$$$$
>  <molecule>
COc1cc(O)c2c(c1)C(=O)c1c(cc3c(c1O)-c1c(cc(C)c(C(=O)N[C@H](C)C(=O)O)c1O)[C@H](O[C@@H]1O[C@H](C)[C@H](N(C)N=O)[C@H](O[C@@H]4OC[C@@H](O)[C@H](O)[C@H]4O)[C@H]1O)[C@H]3O)C2=O [KHM-6, 4'-N-Nitrosopradimicin A]

>  <study-system>
Trichophyton mentagrophytes #4329

>  <value-measured>
3.1

$$$$

Query: // lookup MIC for COc1cc(O)c2c(c1)C(=O)c1c(cc3c(c1O)-c1c(cc(C)c(C(=O)N[C@H](C)C(=O)O)c1O)[C@H](O[C@@H]1O[C@H](C)[C@H](NC(=N)N[N+](=O)[O-])[C@H](O[C@@H]4OC[C@@H](O)[C@H](O)[C@H]4O)[C@H]1O)[C@H]3O)C2=O [KHM-7, 4'-Nitroquanidinopradimicin C]
Result: 3.1

Query: Follow-up entry: COc1cc(O)c2c(c1)C(=O)c1c(cc3c(c1O)-c1c(cc(C)c(C(=O)N[C@H](CO)C(=O)O)c1O)[C@H](O[C@@H]1O[C@H](C)[C@H](N(C)C#N)[C@H](O[C@@H]4OC[C@@H](O)[C@H](O)[C@H]4O)[C@H]1O)[C@H]3O)C2=O [KHM-3, 4'-Cyanooradimicin FA-1]
Result: 50
